Molecular target: T1, Cre recombinase monomer with Q311R mutation
T1 chain: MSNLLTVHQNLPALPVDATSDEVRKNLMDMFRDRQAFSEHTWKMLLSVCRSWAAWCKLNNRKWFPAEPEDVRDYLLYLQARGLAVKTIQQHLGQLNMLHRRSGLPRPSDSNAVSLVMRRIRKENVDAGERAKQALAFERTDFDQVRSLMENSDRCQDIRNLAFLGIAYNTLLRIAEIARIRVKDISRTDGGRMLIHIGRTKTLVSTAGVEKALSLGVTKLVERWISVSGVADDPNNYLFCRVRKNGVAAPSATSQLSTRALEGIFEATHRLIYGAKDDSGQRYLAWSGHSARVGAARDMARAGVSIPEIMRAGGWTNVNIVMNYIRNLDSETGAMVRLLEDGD
measuredMetric: Median dimer activity (recombination on loxP) (%)
Number only, in %; omit the unit.

Short answer for Cre recombinase monomer with R173M mutation (protein) MSNLLTVHQNLPALPVDATSDEVRKNLMDMFRDRQAFSEHTWKMLLSVCRSWAAWCKLNNRKWFPAEPEDVRDYLLYLQARGLAVKTIQQHLGQLNMLHRRSGLPRPSDSNAVSLVMRRIRKENVDAGERAKQALAFERTDFDQVRSLMENSDRCQDIRNLAFLGIAYNTLLMIAEIARIRVKDISRTDGGRMLIHIGRTKTLVSTAGVEKALSLGVTKLVERWISVSGVADDPNNYLFCRVRKNGVAAPSATSQLSTRALEGIFEATHRLIYGAKDDSGQRYLAWSGHSARVGAARDMARAGVSIPEIMQAGGWTNVNIVMNYIRNLDSETGAMVRLLEDGD : Median dimer activity (recombination on loxP) was 96

Short answer for Cre recombinase monomer with R292M mutation (protein) MSNLLTVHQNLPALPVDATSDEVRKNLMDMFRDRQAFSEHTWKMLLSVCRSWAAWCKLNNRKWFPAEPEDVRDYLLYLQARGLAVKTIQQHLGQLNMLHRRSGLPRPSDSNAVSLVMRRIRKENVDAGERAKQALAFERTDFDQVRSLMENSDRCQDIRNLAFLGIAYNTLLRIAEIARIRVKDISRTDGGRMLIHIGRTKTLVSTAGVEKALSLGVTKLVERWISVSGVADDPNNYLFCRVRKNGVAAPSATSQLSTRALEGIFEATHRLIYGAKDDSGQRYLAWSGHSAMVGAARDMARAGVSIPEIMQAGGWTNVNIVMNYIRNLDSETGAMVRLLEDGD : Median dimer activity (recombination on loxP) was 96

Short answer for Cre recombinase monomer with K201P mutation (protein) MSNLLTVHQNLPALPVDATSDEVRKNLMDMFRDRQAFSEHTWKMLLSVCRSWAAWCKLNNRKWFPAEPEDVRDYLLYLQARGLAVKTIQQHLGQLNMLHRRSGLPRPSDSNAVSLVMRRIRKENVDAGERAKQALAFERTDFDQVRSLMENSDRCQDIRNLAFLGIAYNTLLRIAEIARIRVKDISRTDGGRMLIHIGRTPTLVSTAGVEKALSLGVTKLVERWISVSGVADDPNNYLFCRVRKNGVAAPSATSQLSTRALEGIFEATHRLIYGAKDDSGQRYLAWSGHSARVGAARDMARAGVSIPEIMQAGGWTNVNIVMNYIRNLDSETGAMVRLLEDGD : Median dimer activity (recombination on loxP) was 95

Short answer for Cre recombinase monomer with R173I mutation (protein) MSNLLTVHQNLPALPVDATSDEVRKNLMDMFRDRQAFSEHTWKMLLSVCRSWAAWCKLNNRKWFPAEPEDVRDYLLYLQARGLAVKTIQQHLGQLNMLHRRSGLPRPSDSNAVSLVMRRIRKENVDAGERAKQALAFERTDFDQVRSLMENSDRCQDIRNLAFLGIAYNTLLIIAEIARIRVKDISRTDGGRMLIHIGRTKTLVSTAGVEKALSLGVTKLVERWISVSGVADDPNNYLFCRVRKNGVAAPSATSQLSTRALEGIFEATHRLIYGAKDDSGQRYLAWSGHSARVGAARDMARAGVSIPEIMQAGGWTNVNIVMNYIRNLDSETGAMVRLLEDGD : Median dimer activity (recombination on loxP) was 93
